Recorded values, source patent US11512097B2.

Measurement Target: Delta-5-Desaturase (D5D), membrane preparations of D5D-overexpressing HEK293 6E cells (Homo sapiens, UniProt O60427)
Sequence (O60427 whole entry, species assumed): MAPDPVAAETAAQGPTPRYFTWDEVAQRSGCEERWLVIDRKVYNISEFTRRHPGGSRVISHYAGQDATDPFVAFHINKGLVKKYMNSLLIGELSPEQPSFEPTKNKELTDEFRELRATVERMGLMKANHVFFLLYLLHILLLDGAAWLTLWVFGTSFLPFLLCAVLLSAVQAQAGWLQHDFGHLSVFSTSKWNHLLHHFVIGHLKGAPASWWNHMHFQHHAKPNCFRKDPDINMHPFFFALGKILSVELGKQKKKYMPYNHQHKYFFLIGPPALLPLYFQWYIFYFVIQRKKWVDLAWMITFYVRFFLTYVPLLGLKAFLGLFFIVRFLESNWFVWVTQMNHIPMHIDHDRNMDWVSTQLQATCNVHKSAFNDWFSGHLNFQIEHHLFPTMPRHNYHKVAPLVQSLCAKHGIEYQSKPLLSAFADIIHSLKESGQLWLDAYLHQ
Assay Overview: In vitro measurement of Delta-5-Desaturase inhibitory activity using DGLA-CoA and Arachidonyl-CoA mass spectrometric assays
Condition Notes: D5D membrane 10 μg/mL, one-hour incubation, average of at least two independent runs
Parameter: IC50 (nM)

{"Compound": "Cc1cn2c(=O)c(-c3cnn(CCC(F)(F)F)c3)c(C(F)(F)F)nc2n1CC1CC(F)(F)C1 [Example 82]", "Uom": "nM", "Measured Number": 2030}
{"Compound": "Cc1cn2c(=O)c(-c3cnn(CC4CC4(F)F)c3)c(C(F)(F)F)nc2n1C (centres unmarked) [Example 59]", "Uom": "nM", "Measured Number": 11}
{"Compound": "Cc1csc2nc(C(F)(F)F)c(-c3cnn(CC(F)(F)C(F)(F)F)c3)c(=O)n12 [Example 5]", "Uom": "nM", "Measured Number": 482}
{"Compound": "COCc1nn2c(=O)c(-c3cnn(CCC(F)(F)F)c3)c(C(F)(F)F)nc2s1 [Example 10]", "Uom": "nM", "Measured Number": 27.4}
{"Compound": "Cc1cn2c(=O)c(-c3cnn(CC(F)(F)C(F)(F)F)c3)c(C(F)(F)F)nc2s1 [Example 4]", "Uom": "nM", "Measured Number": 17.8}
{"Compound": "Cc1cn2c(=O)c(-c3cnn(CCC(F)(F)F)c3)c(C(F)(F)F)nc2n1CC1CC1 [Example 66]", "Uom": "nM", "Measured Number": 6.6}
{"Compound": "O=c1c(-c2cnn(CC(F)(F)C(F)(F)F)c2)c(C(F)(F)F)nc2scc(C(F)(F)F)n12 [Example 6]", "Uom": "nM", "Measured Number": 271}
{"Compound": "Cc1cn2c(=O)c(-c3cnn(CCC(F)(F)F)c3)c(C(F)(F)F)nc2n1CC1CC1(F)F (centres unmarked) [Example 81]", "Uom": "nM", "Measured Number": 105}

---

Measurement Target: Delta-5-Desaturase (D5D), membrane preparations of D5D-overexpressing HEK293 6E cells (Homo sapiens)
Assay Overview: In vitro measurement of Delta-5-Desaturase inhibitory activity using DGLA-CoA and Arachidonyl-CoA mass spectrometric assays
Condition Notes: D5D membrane 10 μg/mL, one-hour incubation, average of at least two independent runs
Threshold 900 nM. IC50 below it: TRUE. IC50 at it or above: FALSE.

{"Molecule": "Cc1cn2c(=O)c(-c3cnn(CC(F)(F)C(F)(F)F)c3)c(C(F)(F)F)nc2[nH]1", "Label Class": "TRUE"}
{"Molecule": "CN(C)Cc1nn2c(=O)c(-c3cnn(CC(F)(F)C(F)(F)F)c3)c(C(F)(F)F)nc2s1", "Label Class": "FALSE"}
{"Molecule": "Cc1cccc(-n2c(C)cn3c(=O)c(-c4cnn(CC(F)(F)C(F)(F)F)c4)c(C(F)(F)F)nc23)n1", "Label Class": "TRUE"}
{"Molecule": "Cc1nn2c(=O)c(-c3cnn(C[C@@H]4CC4(F)F)c3)c(C(F)(F)F)nc2s1 (single isomer, unassigned)", "Label Class": "TRUE"}
{"Molecule": "Cc1cn2c(=O)c(-c3cnn(CC(F)(F)C(F)(F)F)c3)c(C(F)(F)F)nc2n1-c1cnn(C)c1", "Label Class": "TRUE"}
{"Molecule": "Cn1cnn2c(=O)c(-c3cnn(CC(F)(F)C(F)(F)F)c3)c(C(F)(F)F)nc12", "Label Class": "TRUE"}
{"Molecule": "O=c1c(-c2cnn(CC(F)(F)C(F)(F)F)c2)c(C(F)(F)F)nc2n1CC1CC21 (stereo not shown)", "Label Class": "TRUE"}
{"Molecule": "Cc1cn2c(=O)c(-c3ccc(OCC(F)(F)F)cc3)c(C(F)(F)F)nc2n1C", "Label Class": "TRUE"}
{"Molecule": "COCc1nn2c(=O)c(-c3cnn(CC(F)(F)C(F)(F)F)c3)c(C(F)(F)F)nc2s1", "Label Class": "TRUE"}
{"Molecule": "C#CCn1c(C)cn2c(=O)c(-c3cnn(CC(F)(F)C(F)(F)F)c3)c(C(F)(F)F)nc12", "Label Class": "TRUE"}
{"Molecule": "Cc1cn2c(=O)c(-c3ccc(OCC(F)(F)F)cc3)c(C(F)(F)F)nc2[nH]1", "Label Class": "TRUE"}
{"Molecule": "O=c1c(-c2cnn(CC(F)(F)C(F)(F)F)c2)c(C(F)(F)F)nc2sccn12", "Label Class": "TRUE"}
{"Molecule": "Cc1nn2c(=O)c(-c3cnn(CCC(F)(F)F)c3)c(C(F)(F)F)nc2s1", "Label Class": "TRUE"}
{"Molecule": "Cc1cn2c(=O)c(-c3cnn(CC(F)(F)C(F)(F)F)c3)c(C(F)(F)F)nc2n1-c1cccnc1", "Label Class": "FALSE"}
{"Molecule": "Cn1cc(Cl)n2c(=O)c(-c3cnn(CC(F)(F)C(F)(F)F)c3)c(C(F)(F)F)nc12", "Label Class": "FALSE"}
{"Molecule": "CCc1nc2sc(C)nn2c(=O)c1-c1cnn(CC(F)(F)C(F)(F)F)c1", "Label Class": "FALSE"}

---

Measurement Target: Delta-5-Desaturase (D5D), membrane preparations of D5D-overexpressing HEK293 6E cells (Homo sapiens)
Assay Overview: In vitro measurement of Delta-5-Desaturase inhibitory activity using DGLA-CoA and Arachidonyl-CoA mass spectrometric assays
Condition Notes: D5D membrane 10 μg/mL, one-hour incubation, average of at least two independent runs
Procedure: In Vitro Measurement of Delta-5-Desaturase Inhibitory Activity Using DGLA-CoA and Arachidonyl-CoA Mass Spectrometric Assays Membrane preparations of D5D-overexpressing HEK293 6E cells were prepared in which the total protein concentration was 5.6 mg/mL. […] DGLA-CoA and Arachidonyl-CoA were detected by multiple reaction monitoring (MRM) of the doubly charged parent ions at m/z 526.6 and 525.6, respectively. […] IC50 values were averaged values determined by at least two independent runs. […]
Rule for this label: condition met means IC50 is less than 0.06 µM; condition not met means IC50 is at least 0.06 µM.

{"Molecule": "O=c1c(-c2cnn(CC(F)(F)C(F)(F)F)c2)c(C(F)(F)F)nc2n1CCC2 [Example 19]", "Label Class": "condition met"}
{"Molecule": "Cc1cn2c(=O)c(-c3cnn(CC4CC(F)(F)C4)c3)c(C(F)(F)F)nc2n1C [Example 60]", "Label Class": "condition met"}
{"Molecule": "Cc1cn2c(=O)c(-c3cnn(CC(F)(F)C(F)(F)F)c3)c(C(F)(F)F)nc2n1CC(C)O (stereo not drawn) [Example 64]", "Label Class": "condition not met"}
{"Molecule": "Cn1c(Cl)cn2c(=O)c(-c3cnn(CC(F)(F)C(F)(F)F)c3)c(C(F)(F)F)nc12 [Example 48]", "Label Class": "condition met"}
{"Molecule": "O=c1c(-c2cnn(CC(F)(F)C(F)(F)F)c2)c(C(F)(F)F)nc2sc(CF)nn12 [Example 104]", "Label Class": "condition not met"}
{"Molecule": "Cc1cn2c(=O)c(-c3cnn(CC(F)(F)C(F)(F)F)c3)c(C(F)(F)F)nc2n1-c1cncnc1 [Example 99]", "Label Class": "condition not met"}
{"Molecule": "Cc1cn2c(=O)c(-c3cnn(CCC(F)(F)F)c3)c(C(F)(F)F)nc2n1CCO [Example 83]", "Label Class": "condition met"}
{"Molecule": "Cc1cn2c(=O)c(-c3cnn(CC(F)(F)C(F)(F)F)c3)c(C(F)(F)F)nc2n1CCN(C)C [Example 84]", "Label Class": "condition not met"}
{"Molecule": "Cc1cn2c(=O)c(-c3ccc(OCC(F)(F)F)cc3)c(C(F)(F)F)nc2n1CCN(C)C [Example 69]", "Label Class": "condition not met"}

---

Measurement Target: Delta-5-Desaturase (D5D), membrane preparations of D5D-overexpressing HEK293 6E cells (Homo sapiens, UniProt O60427)
Assay Overview: In vitro measurement of Delta-5-Desaturase inhibitory activity using DGLA-CoA and Arachidonyl-CoA mass spectrometric assays
Condition Notes: D5D membrane 10 μg/mL, one-hour incubation, average of at least two independent runs
pIC50: −log10 of the molar value.
Each record here notes measured pIC50.

{"Mol Smiles": "COc1cn2c(=O)c(-c3cnn(CCC(F)(F)F)c3)c(C(F)(F)F)nc2n1C", "pIC50": 6.87}
{"Mol Smiles": "Cc1cn2c(=O)c(-c3cnn(CC(F)(F)C(F)(F)F)c3)c(C(F)(F)F)nc2n1CC1COC1", "pIC50": 6.98}
{"Mol Smiles": "COCCn1c(C)cn2c(=O)c(-c3cnn(CC(F)(F)C(F)(F)F)c3)c(C(F)(F)F)nc12", "pIC50": 6.84}
